The origin of these recorded values is paper PMC10786919.

Experiment: physchem
Positions of bridges follow the written chain, without caps; N, C: chain ends. Non-standard residues stand in square brackets, D forms with d. Residues, ends and D or L forms follow the SMILES beside them. R8 = C=CCCCCCC[C@@](C)(N)C(=O)O; Cba = N[C@@H](CC1CCC1)C(=O)O; S5 = C=CCCC[C@](C)(N)C(=O)O
Listed here are compounds together with their documented EPSA.

[
  {
    "Compound": "CC(=O)N[C@@H](CCCCN=[N+]=[N-])C(=O)NCCC(=O)N[C@@H](CC(C)C)C(=O)NC(C)(C)C(=O)N[C@@H](Cc1ccccc1)C(=O)N[C@]1(C)CCCCCCC=CCCC[C@@](C)(C(=O)N[C@@H](CO)C(=O)N[C@@H](C)C(=O)N[C@@H](C)C(N)=O)NC(=O)[C@H](CC2CCC2)NC(=O)[C@H](CCC(N)=O)NC(=O)[C@H](C)NC(=O)[C@H](Cc2c[nH]c3ccccc23)NC(=O)[C@H](Cc2ccc(O)cc2)NC(=O)[C@H](CCC(=O)O)NC1=O",
    "Units label": "A^2",
    "EPSA": 227
  },
  {
    "Compound": "CC(=O)N[C@@H](CCCCN=[N+]=[N-])C(=O)NCCC(=O)N[C@@H](CCC(=O)O)C(=O)N[C@H](C(=O)N[C@@H](Cc1ccccc1)C(=O)N[C@]1(C)CCCCCCC=CCCC[C@@](C)(C(=O)N[C@@H](CO)C(=O)N[C@@H](C)C(=O)N[C@@H](C)C(N)=O)NC(=O)[C@H](CC2CCC2)NC(=O)[C@H](CCC(N)=O)NC(=O)[C@H](C)NC(=O)[C@H](Cc2c[nH]c3ccccc23)NC(=O)[C@H](Cc2ccc(O)cc2)NC(=O)[C@H](CCC(=O)O)NC1=O)[C@@H](C)O",
    "Units label": "A^2",
    "EPSA": 254
  },
  {
    "Compound": "CC(=O)N[C@@H](CCCCN=[N+]=[N-])C(=O)NCCC(=O)N[C@@H](CC(C)C)C(=O)N[C@H](C(=O)N[C@@H](Cc1ccccc1)C(=O)N[C@]1(C)CCCCCCC=CCCC[C@@](C)(C(=O)N[C@@H](CO)C(=O)N[C@@H](C)C(=O)N[C@@H](C)C(N)=O)NC(=O)[C@H](CC2CCC2)NC(=O)[C@H](CCC(N)=O)NC(=O)[C@H](C)NC(=O)[C@H](Cc2c[nH]c3ccccc23)NC(=O)[C@H](Cc2ccc(O)cc2)NC(=O)[C@H](Cc2c[nH]cn2)NC1=O)[C@@H](C)O [MP-175, AZIDE-ATSP-7041 (E5H)]",
    "Units label": "A^2",
    "EPSA": 214
  },
  {
    "Compound": "CC(=O)N[C@@H](C)C(=O)N[C@@H](C)C(=O)N[C@@H](Cc1ccccc1)C(=O)N[C@]1(C)CCCCCCC=CCCC[C@@](C)(C(=O)N[C@@H](CO)C(=O)N[C@@H](C)C(=O)N[C@@H](C)C(N)=O)NC(=O)[C@H](CC2CCC2)NC(=O)[C@H](C)NC(=O)[C@H](C)NC(=O)[C@H](Cc2c[nH]c3ccccc23)NC(=O)[C@H](Cc2ccc(O)cc2)NC(=O)[C@H](CCC(=O)O)NC1=O [MP-1207] (Ac-AAF[R8]EYWAA[Cba][S5]SAA-NH2; staple 4-11)",
    "Units label": "A^2",
    "EPSA": 224
  },
  {
    "Compound": "CC(=O)N[C@@H](CCCCN=[N+]=[N-])C(=O)NCCC(=O)NC(C)(C)C(=O)N[C@H](C(=O)N[C@@H](Cc1ccccc1)C(=O)N[C@]1(C)CCCCCCC=CCCC[C@@](C)(C(=O)N[C@@H](CO)C(=O)N[C@@H](C)C(=O)N[C@@H](C)C(N)=O)NC(=O)[C@H](CC2CCC2)NC(=O)[C@H](CCC(N)=O)NC(=O)[C@H](C)NC(=O)[C@H](Cc2c[nH]c3ccccc23)NC(=O)[C@H](Cc2ccc(O)cc2)NC(=O)[C@H](CCC(=O)O)NC1=O)[C@@H](C)O",
    "Units label": "A^2",
    "EPSA": 228
  }
]
